# System: UO-31
# procedure_text: NCI tumour cell line growth inhibition, 48 h
Active and inactive are the calls of the source. Cut-off read from the data, not from the text of the source: active = GI50 up to about 1.1 µM and inactive = higher.
Outcomes: class 1 for active, class 0 for inactive

molecule=C/C=C1\C(=O)O[C@H]2C/C(C)=C/CC/C(C)=C/CC[C@@]3(C)O[C@@H]3C[C@@H]12 category="class 0"
molecule=CCN(CC)C(=O)Cn1c2c(c3ccccc31)CCCC2 category="class 0"
molecule="O=C1C(F)=CC(COC(c2ccccc2)(c2ccccc2)c2ccccc2)OC1n1cc(F)c(=O)[nH]c1=O (stereo not given)" category="class 0"
molecule=C/C(=N\Nc1nc2ccccc2o1)c1ccncn1 category="class 1"
molecule=CCc1cccc(C(C)C)c1C1C(=O)C(=O)N(c2nc3ccccc3s2)C(=O)C1=O category="class 0"
